- Tested on: Escherichia coli ATCC 25922
- experiment-notes: Antibacterial assay, micro broth dilution
- Format: cell-based
- condition-notes: ATCC25922, micro broth dilution, LB medium, 24 hours at 37 °C, read-out: Antibacterial Activity (MIC) E. coli
We begin with a simple list: items and their reported MIC.

Reference set (3 entries):
>>> df
                                   compound  measurement
0  CSC12CC3=COC=CC(OC(C)=O)C3N1C(=O)C1(SC)CC3(O)C=CC(=O)C(OC(C)=O)C3N1C2=O (centres unmarked)   > 80 µg/mL
1  CS[C@@]12CC3=COC=C[C@H](OC(C)=O)[C@H]3N1C(=O)[C@]1(SC)CC3=COC=C[C@H](OC(C)=O)[C@H]3N1C2=O   > 80 µg/mL
2  O=C(O)c1cn(C2CC2)c2cc(N3CCNCC3)c(F)cc2c1=O [CFN, Ciprofloxacin, reference compound]    0.6 µg/mL

Quote MIC reported for CS[C@@]12CC3=COC=C[C@H](OC(C)=O)[C@H]3N1C(=O)[C@]1(SC)CC3=CC=C[C@H](O)[C@H]3N1C2=O please. > 80 µg/mL

Fill in reported MIC for this entry: CS[C@@]12CC3=COC=C[C@H](OC(C)=O)[C@H]3N1C(=O)[C@]1(SC)CC3=COC=C[C@H](O)[C@H]3N1C2=O > 80 µg/mL

----------
- experiment-notes: Cytotoxicity, CCK-8 method
- Type: cell-based
- condition-notes: human, HepG-2 cells (hepatocellular carcinoma cell line); HepG-2 cells, CCK-8, 24 hours treatment; read-out: Cytotoxicity (IC50) against HepG-2
observation-type: IC50 at 24 h

Reference set, count: 2
                               input_smiles  measurement
0  CS[C@@]1(Cc2ccccc2)NC(=O)[C@H](Cc2ccccc2)NC1=O      > 80 µM
1  CS[C@@H]1NC(=O)[C@@](Cc2ccccc2)(SC)NC1=O      > 80 µM

State, in one line, measured IC50 at 24 h of CS[C@@]1(Cc2ccccc2)NC(=O)[C@@](Cc2ccccc2)(SC)NC1=O > 80 µM

----------
- Test system: brine shrimps
- experiment-notes: Brine shrimp lethality bioassay
- Format: in vivo
- condition-notes: Table 3
observation-type: Toxicity (TC50) Brine Shrimp

Field: example entries. Status: answers known.
In [3]: df
Out[3]:
                                   compound  measurement
0  CS[C@@]12CC3=CC=C[C@H](OC(C)=O)[C@H]3N1C(=O)[C@]1(SC)CC3=CC=C[C@H](OC(C)=O)[C@H]3N1C2=O    >80 µg/mL
1  CSC12CC3=COC=CC(O)C3N1C(=O)C1(Cc3ccccc3O1)NC2=O (stereo not drawn)    >80 µg/mL
2  CSC12CC3=COC=CC(OC(C)=O)C3N1C(=O)C1(SC)CC3(O)C=CC(=O)C(OC(C)=O)C3N1C2=O (stereo not drawn)     80 µg/mL
3  CS[C@@]12CC3=CC=C[C@H](O)[C@H]3N1C(=O)[C@]1(SC)CC3=COC=C[C@H](O)[C@H]3N1C2=O    >80 µg/mL
4  CS[C@@]12CC3=COC=C[C@H](O)[C@H]3N1C(=O)[C@]1(SC)CC3=COC=C[C@H](O)[C@H]3N1C2=O    >80 µg/mL

Please report the measured Toxicity (TC50) Brine Shrimp for CS[C@@]12CC3=CC=C[C@H](OC(C)=O)[C@H]3N1C(=O)[C@]1(SC)CC3=COC=C[C@H](O)[C@H]3N1C2=O >80 µg/mL

Report Toxicity (TC50) Brine Shrimp, nothing else, for this compound: CS[C@@]1(Cc2ccccc2)NC(=O)[C@]2(SC)CC3=COC=C[C@H](O)[C@H]3N2C1=O >80 µg/mL

Could you please provide reported Toxicity (TC50) Brine Shrimp for CS[C@@]12CC3=COC=C[C@H](OC(C)=O)[C@H]3N1C(=O)[C@]1(SC)CC3=COC=C[C@H](O)[C@H]3N1C2=O ? Thanks! >80 µg/mL

----------
- Tested on: Escherichia coli ATCC 25922
- experiment-notes: Antibacterial assay, micro broth dilution
- Type: cell-based
- condition-notes: ATCC25922, micro broth dilution, LB medium, 24 hours at 37 °C, read-out: Antibacterial Activity (MIC) E. coli
observation-type: MIC

Print Escherichia coli ATCC 25922 MIC for CS[C@@]12Cc3ccccc3N1C(=O)[C@]1(SC)CC3=COC=C[C@H](O)C3N1C2=O (stereo partly drawn) [Compound 17] . > 80 µg/mL

Answer briefly: MIC recorded on Escherichia coli ATCC 25922 for CS[C@@]12Cc3ccccc3N1C(=O)[C@]1(SC)CC3=COC=C[C@H](OC(C)=O)C3N1C2=O (stereo partly drawn) [Compound 16, versicolor A] > 80 µg/mL

Provide MIC, tested on Escherichia coli ATCC 25922, for CSC12CC3=COC=CC(OC(C)=O)C3N1C(=O)C1(SC)CC34OC3C3OC3C(OC(C)=O)C4N1C2=O (stereo not drawn) [Compound 3, Lecanicillium C] . > 80 µg/mL

----------
- Tested on: Pseudomonas aeruginosa ATCC 9027
- experiment-notes: Antibacterial assay, micro broth dilution
- Assay type: cell-based
- condition-notes: ATCC9027, micro broth dilution, LB medium, 24 hours at 37 °C, read-out: Antibacterial Activity (MIC) P. aeruginosa
- Protocol: The micro broth dilution method was used to evaluate the antibacterial activities of compounds 1–19 against the growth of eight common pathogens: Bacillus subtilis BS01, Micrococcus luteus, Escherichia coli ATCC 25922, Staphylococcus aureus ATCC 6538, S. aureus MRSA, Streptococcus agalactiae ATCC 13813, S. iniae, and Pseudomonas aeruginosa ATCC 9027 in 96-well polystyrene plates. […] The MICs were determined after 24 hours’ incubation at 37 °C with the tested compounds.
observation-type: MIC

Answered examples (2):
>>> df
                                   molecule  measurement
0  CS[C@@]12CC3=COC=C[C@H](OC(C)=O)[C@H]3N1C(=O)[C@]1(SC)CC3=CC=C[C@H](O)[C@H]3N1C2=O   > 80 µg/mL
1  CS[C@@]12Cc3ccccc3N1C(=O)[C@]1(SC)CC3=COC=C[C@H](OC(C)=O)C3N1C2=O (stereo partly drawn)   > 80 µg/mL

Tell me MIC of CSC12CC3=COC=CC(O)C3N1C(=O)C1(Cc3ccccc3O1)NC2=O (stereo not drawn) when tested on Pseudomonas aeruginosa ATCC 9027. > 80 µg/mL

----------
- experiment-notes: Cytotoxicity, CCK-8 method
- Type: cell-based
- condition-notes: human, H1975 cells (lung adenocarcinoma cell line); H1975 cells, CCK-8, 24 hours treatment; read-out: Cytotoxicity (IC50) against H1975
Measured IC50 at 24 h accompanies every entry in the list below.

Consider the reported IC50 at 24 h for these compounds:
                                   compound  measurement
0  CS[C@@]1(Cc2ccccc2)NC(=O)[C@H](Cc2ccccc2)NC1=O [Compound 6, Lecanicillium F]      > 80 µM
1  CS[C@@]1(Cc2ccccc2)NC(=O)[C@@](Cc2ccccc2)(SC)NC1=O [Compound 7, emethacin B]      16.9 µM

Attention now shifts to the item below.
For the compound CS[C@@H]1NC(=O)[C@@](Cc2ccccc2)(SC)NC1=O [Compound 19, citriperazine B] , report IC50 at 24 h. > 80 µM

----------
- experiment-notes: Cytotoxicity, CCK-8 method
- Assay type: cell-based
- condition-notes: human
Quick reference: IC50 at 24 h of the listed items.

Past entries and their recorded results:
compound	IC50 at 24 h
CSS[C@@]12CC3=COC=C[C@H](OC(C)=O)[C@H]3N1C(=O)[C@]1(SC)CC3=COC=C[C@H](OC(C)=O)[C@H]3N1C2=O [Compound 5, Lecanicillium E]	16.3 µM
CS[C@@]12CC3=COC=C[C@H](OC(C)=O)[C@H]3N1C(=O)[C@]1(SC)CC3=COC=C[C@H](O)[C@H]3N1C2=O [Compound 10, bisdethiobis(methylsulfanyl)-aranotin]	> 80 µM
CSC12CC3=COC=CC(OC(C)=O)C3N1C(=O)C1(SC)CC3(O)C=CC(=O)C(OC(C)=O)C3N1C2=O (stereo not shown) [Compound 4, Lecanicillium D]	71.5 µM
CS[C@@]12CC3=COC=C[C@H](O)[C@H]3N1C(=O)[C@]1(SC)CC3=COC=C[C@H](O)[C@H]3N1C2=O [Compound 9]	> 80 µM
CS[C@@]12CC3=CC=C[C@H](OC(C)=O)[C@H]3N1C(=O)[C@]1(SC)CC3=COC=C[C@H](O)[C@H]3N1C2=O [Compound 11]	69.3 µM

Hello, please tell me recorded IC50 at 24 h for this one: CS[C@@]12Cc3ccccc3N1C(=O)[C@]1(SC)CC3=COC=C[C@H](O)C3N1C2=O (stereo partly shown) [Compound 17] 35.2 µM

Identify IC50 at 24 h associated with the compound CS[C@@]12CC3=CC=C[C@H](OC(C)=O)[C@H]3N1C(=O)[C@]1(SC)CC3=COC=C[C@H](OC(C)=O)[C@H]3N1C2=O [Compound 12] > 80 µM

Using known records, supply IC50 at 24 h for CSC12CC3=COC=CC(O)C3N1C(=O)C1(Cc3ccccc3O1)NC2=O (stereo not shown) [Compound 2, Lecanicillium B] > 80 µM

Provide measured IC50 at 24 h value, entry: CS[C@@]12Cc3ccccc3N1C(=O)[C@]1(SC)CC3=COC=C[C@H](OC(C)=O)C3N1C2=O (stereo partly shown) [Compound 16, versicolor A] 7.2 µM

Using known records, supply IC50 at 24 h for CSC12CC3=COC=CC(OC(C)=O)C3N1C(=O)C1(SC)CC34OC3C3OC3C(OC(C)=O)C4N1C2=O (stereo not shown) [Compound 3, Lecanicillium C] > 80 µM

Complete the entry with IC50 at 24 h for CS[C@@]12CC3=COC=C[C@H](OC(C)=O)[C@H]3N1C(=O)[C@]1(SC)CC3=COC=C[C@H](OC(C)=O)[C@H]3N1C2=O [Compound 8] > 80 µM

Return IC50 at 24 h for the following compound: CS[C@@]12CC3=COC=C[C@H](OC(C)=O)[C@H]3N1C(=O)[C@]1(SC)CC3=CC=C[C@H](O)[C@H]3N1C2=O [Compound 13, bisdethiobis(methylsulfanyl)apoaranotin] > 80 µM

For the compound CS[C@@]12CC3=CC=C[C@H](O)[C@H]3N1C(=O)[C@]1(SC)CC3=COC=C[C@H](O)[C@H]3N1C2=O [Compound 14] , report IC50 at 24 h. > 80 µM
